testProtocol: Photochromic properties of lens samples (2 mm, compound in matrix I or II) exposed to UV radiation from a xenon lamp
Assay type: physicochemical
measurementConditions: lens sample, Matrix I (homopolymer of DIACRYL 121)
Label T when TD15 (the transmission after 15 minutes' exposure to UV) is at or above 50%; anything below gets F.

>  <molecule>
CN1c2ccccc2C(C)(C)C12C=Nc1c(ccc3ccccc13)O2 (centres unmarked) [Control I, reference compound]

>  <label>
T

$$$$
>  <molecule>
CN1c2ccccc2C(C)(C)C12C=Nc1c(c(C(=O)N3CCCCC3)cc3ccccc13)O2 (centres unmarked)

>  <label>
T

$$$$
>  <molecule>
Cc1cc2c(cc1C)C(C)(C)C1(C=Nc3c(ccc4ccccc34)O1)N2C (centres unmarked) [Control II, reference compound]

>  <label>
F

$$$$
>  <molecule>
CN1c2ccccc2C(C)(C)C12C=Nc1c(c(C(=O)N3CCc4ccccc43)cc3ccccc13)O2 (centres unmarked)

>  <label>
F

$$$$
>  <molecule>
Cc1ccc(NC(=O)c2cc3ccccc3c3c2OC2(C=N3)N(C)c3ccccc3C2(C)C)cc1 (centres unmarked)

>  <label>
F

$$$$

---

testProtocol: Photochromic properties of lens samples (2 mm, compound in matrix I or II) exposed to UV radiation from a xenon lamp
Assay type: physicochemical
measurementConditions: lens sample, Matrix II (50/50 D121 / PEGDMA 400 copolymer)
Exam item: assign 1.0 to entries whose OID (optical induced density, D∞-D0) is below 0.4 and 0.0 to entries at or above 0.4. Note that a value of exactly 0.4 receives 0.0.

>  <molecule>
Cc1cc2c(cc1C)C(C)(C)C1(C=Nc3c(ccc4ccccc34)O1)N2C (stereo not drawn) [Control II, reference compound]

>  <label>
1.0

$$$$
>  <molecule>
COc1ccc2c(c1)C(C)(C)C1(C=Nc3c(c(C(=O)N4CCCCC4)cc4ccccc34)O1)N2C (stereo not drawn)

>  <label>
0.0

$$$$
>  <molecule>
CN1c2ccccc2C(C)(C)C12C=Nc1c(c(C(=O)N3CCOCC3)cc3ccccc13)O2 (stereo not drawn)

>  <label>
1.0

$$$$
>  <molecule>
CC(C)CN1c2ccccc2C(C)(C)C12C=Nc1c(c(C(=O)N3CCCCC3)cc3ccccc13)O2 (stereo not drawn)

>  <label>
0.0

$$$$
>  <molecule>
CN1c2ccccc2C(C)(C)C12C=Nc1c(ccc3ccccc13)O2 (stereo not drawn) [Control I, reference compound]

>  <label>
1.0

$$$$
>  <molecule>
CN1c2ccccc2C(C)(C)C12C=Nc1c(c(C(=O)N3CCc4ccccc43)cc3ccccc13)O2 (stereo not drawn)

>  <label>
0.0

$$$$

---

testProtocol: Photochromic properties of lens samples (2 mm, compound in matrix I or II) exposed to UV radiation from a xenon lamp
Type: physicochemical
measurementConditions: lens sample, Matrix I (homopolymer of DIACRYL 121)
testReadout: T0 (the transmission before exposure to UV) (%)

>  <molecule>
Cc1ccc(NC(=O)c2cc3ccccc3c3c2OC2(C=N3)N(C)c3ccccc3C2(C)C)cc1 (centres unmarked)

>  <unitName>
%

>  <observedValue>
75.5

$$$$
>  <molecule>
Cc1cc2c(cc1C)C(C)(C)C1(C=Nc3c(ccc4ccccc34)O1)N2C (centres unmarked) [Control II, reference compound]

>  <unitName>
%

>  <observedValue>
90.5

$$$$
>  <molecule>
CN1c2ccccc2C(C)(C)C12C=Nc1c(c(C(=O)N3CCCCC3)cc3ccccc13)O2 (centres unmarked)

>  <unitName>
%

>  <observedValue>
89.0

$$$$
>  <molecule>
CN1c2ccccc2C(C)(C)C12C=Nc1c(c(C(=O)N3CCc4ccccc43)cc3ccccc13)O2 (centres unmarked)

>  <unitName>
%

>  <observedValue>
86.9

$$$$
>  <molecule>
CN1c2ccccc2C(C)(C)C12C=Nc1c(ccc3ccccc13)O2 (centres unmarked) [Control I, reference compound]

>  <unitName>
%

>  <observedValue>
90.9

$$$$
